meta.source: BindingDB's records for doi:10.1021/jm970559i

Assay: Antiviral activity against Human Immunodeficiency Virus by Reverse transcriptase assay in CEM-SS
observed property: IC50

>>> recorded_measurement("Cc1ccc(Cn2c(Cl)nc3cc(Cl)c(Cl)cc32)cc1")
"> 100 µM"

---

Assay: Antiviral activity against Human Immunodeficiency Virus by Reverse transcriptase assay in CEM-SS cells
observed property: IC50

>>> recorded_measurement("O=[N+]([O-])c1ccc(Cn2c(Cl)nc3cc(Cl)c(Cl)cc32)cc1")
"> 100 µM"

---

Assay: Antiviral activity against Human Immunodeficiency Virus by Reverse transcriptase assay CEM-SS cells
observed property: IC50

>>> recorded_measurement("COc1ccc(Cn2c(Br)nc3cc(Cl)c(Cl)cc32)cc1")
"> 100 µM"
